Target: human DLL3 endogenously expressed on SHP77 and NCI-H82 cells (human) (UniProt Q9NYJ7)
Sequence (Q9NYJ7 27-618): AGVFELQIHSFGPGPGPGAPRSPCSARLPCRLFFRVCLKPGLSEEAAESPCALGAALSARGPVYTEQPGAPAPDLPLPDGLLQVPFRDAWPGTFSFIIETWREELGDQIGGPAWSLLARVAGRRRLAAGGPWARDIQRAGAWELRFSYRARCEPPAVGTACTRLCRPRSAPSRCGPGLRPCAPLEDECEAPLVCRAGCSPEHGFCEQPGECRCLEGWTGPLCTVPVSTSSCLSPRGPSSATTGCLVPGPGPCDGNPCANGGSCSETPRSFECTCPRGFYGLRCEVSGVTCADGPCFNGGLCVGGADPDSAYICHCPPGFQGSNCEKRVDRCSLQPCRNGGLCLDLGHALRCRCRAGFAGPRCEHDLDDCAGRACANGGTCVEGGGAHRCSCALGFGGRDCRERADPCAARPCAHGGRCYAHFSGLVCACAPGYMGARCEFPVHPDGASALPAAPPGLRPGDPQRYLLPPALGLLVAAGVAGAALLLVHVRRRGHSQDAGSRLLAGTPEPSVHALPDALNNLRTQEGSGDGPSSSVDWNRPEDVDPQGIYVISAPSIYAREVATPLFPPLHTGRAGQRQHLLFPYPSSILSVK
Test: FACS SHP77 cells, 4 nM
// values below are reported MFI
Hi! Could you send only the number? It should be in MFI, unit omitted.

Answered cases to consult:
# Binder, MFI [MFI]
measured = [
    ("mab007 scFv-hFc (Fc fusion, not shown: small tags and cut ends; a dimerising Fc or GST) scFv (part 1 of 2): DVQITQSPSYLAASPGETITINCRASTSISKYLAWYQERPGKTNKLLIYSGSTLQSGIPSRFRGSGSGTDFTLTISSLEPEDFAMYYCQQHHVYPYTFGGGTKLEIK scFv (part 2 of 2): QVQLQQPGAELVRPGTSVKLSCKASGYTFTSYWMHWVKQRPGQGLEWIGVIDPSDSLANYNQEFKGKATLTVDTSSSTAYMQLSSLTSEDSAVYYCARDSTVVAPMDYWGQGTSVTVSS", 563),
    ("mab005 scFv-hFc (Fc fusion, not shown: small tags and cut ends; a dimerising Fc or GST) scFv (part 1 of 2): DIVLTQSPATLSVTPGDSVSLSCRASQSVSNDLHWYQQKSHESPRLLIKYASQSISGIPSRFSGSGSGTDFTLTINSVETEDFGMYFCQQSNNWPYTFGGGTKLEMK scFv (part 2 of 2): QVQLQQSGAELMKPGASVTLSCKATGYTLPGYWIEWVKQRPGHGLEWIGEILPGSSSANYNEKFKGKATFTADTSSNTAYMQLSSLTTEDSAIYYCASTYGTSLDYWGQGTTLTVSS", 451),
    ("mab002 scFv-hFc (Fc fusion, not shown: small tags and cut ends; a dimerising Fc or GST) scFv (part 1 of 2): QIVLTQSPAIMSASPGEKVTMTCSARSSVSYMQWYQQKSGTSPKRWIYDTSKLASGVPARFSGSGSGTSYSLTISTMEAEDAATYYCQQWSSDPPTFGGGTKLEIK scFv (part 2 of 2): QIQLVQSGPELKKPGETVKISCKASGYTFTNYGMNWLKQAPGKGLKWMGWINTYTGESTYADDFKGRFAFSLETSASTVYLQINNLKNEDMATYFCARMGDGYYDFTMDYWGQGTSVTVSS", 535),
]

Entry mab012 scFv-hFc (Fc fusion, not shown: small tags and cut ends; a dimerising Fc or GST) scFv (part 1 of 2): DVLMTQTPLSLPVSLGDQASISCRSSQSIVHSDGNTYLEWYLQKPGQSPKLLIYKVSNRFSGVPDRFSGSGSGTDFTLKISRVEAEDLGFYYCFQGSHVPFTFGSGTKLEIK scFv (part 2 of 2): QVQLQQSGPELVKPGASVKISCKASGYTFTDYYIHWVKQRPGQGLEWIGWTLPGSGSPYYNEKFKGKATLTVDKSSSTAYMLLSSLTSEDSAVYFCARWHYYYGSSYHFDYWGQGTTLTVSS — recorded MFI = 337

Entry mab014 scFv-hFc (Fc fusion, not shown: small tags and cut ends; a dimerising Fc or GST) scFv (part 1 of 2): DIQMTQSSSSFSVSLGDRVTITCKASEDIYNRLAWYQQKPGNTPRLLISGATSLETGVPSRFSGSGSGKDFTLSITSLQTEDVATYYCQQYWSLPWTFGGGTKLEIK scFv (part 2 of 2): EVQLHQSGPELVKPGTSVKISCKASGYTFTDYYMNWVKQSHGKSLEWIGDINPNHGDTGYNQKFTGKATLTVDKSSSTAYMELRSLTSEDSAVYYCARNFFYYGTTYGWYFDVWGTGTTVTVSS — recorded MFI = 681

Entry mab011 scFv-hFc (Fc fusion, not shown: small tags and cut ends; a dimerising Fc or GST) scFv (part 1 of 2): DIVLTQSPATLSVTPGDSVSLSCRASQSISNNLHWYQQKSHESPRLLIKYASQSISGIPSRFSGSGSGTDFTLSINSVETEDFGMYFCQQSNSWPWTFGGGTKLEIK scFv (part 2 of 2): EVQLQQSGPELVKPGASVKISCKASGYTFTDYYMNWVKQSHGKSLEWIGDISPNYGGTNYNQKFKGKATLTVDKSSSTACMELRSLTSEDSAVYYCTRSFYYYGTGYDWYFDVWGTGTTVTVSS — recorded MFI = 508

Value source: patent EP4786492A1
